Collected log10 IC50 values appear next to each entry.
molecular target: Outer membrane protein MIP (Legionella pneumophila, UniProt Q70YI1)
Sequence (Q70YI1 21-233 limits assumed): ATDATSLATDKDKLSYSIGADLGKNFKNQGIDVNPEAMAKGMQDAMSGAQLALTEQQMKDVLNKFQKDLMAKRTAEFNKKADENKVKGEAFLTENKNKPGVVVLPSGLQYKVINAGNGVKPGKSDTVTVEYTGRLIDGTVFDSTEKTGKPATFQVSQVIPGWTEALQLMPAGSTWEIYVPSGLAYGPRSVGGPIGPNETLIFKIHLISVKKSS
Give log10 of IC50, with IC50 taken in µM.

// solved cases for log10 IC50 follow
>>> print(df.to_string())
                                   compound  experimental_result
0  C[C@@H]1CC([C@H](O)CC2CC(=O)N(CC(=O)NC3C4CC5(C)CC(O)(C4)CC3(C)C5)C(=O)C2)C(=O)[C@@H](C)C1 (stereo not given in full)                 0.69
1  C[C@@H]1CC([C@H](O)CC2CC(=O)N(CC(=O)NC3C4CC5CC3CC(O)(C5)C4)C(=O)C2)C(=O)[C@@H](C)C1 (stereo not given in full)                 1.34
2  CCC12CC3CC(C1)C(NC(=O)CN1C(=O)CC(C[C@@H](O)C4C[C@@H](C)C[C@H](C)C4=O)CC1=O)C(C3)C2 (stereo not given in full)                 0.75
3  C[C@@H]1CC([C@H](O)CC2CC(=O)N(CC(=O)NC3C4CC5(C)CC3CC(C)(C4)C5)C(=O)C2)C(=O)[C@@H](C)C1 (stereo not given in full)                 0.23

// moving on: another record for log10 IC50
Bench note, Outer membrane protein MIP (Legionella pneumophila, UniProt Q70YI1): entry C[C@@H]1CC([C@H](O)CC2CC(=O)N(CC(=O)N(C)C(C)(C)C)C(=O)C2)C(=O)[C@@H](C)C1 (stereo not given in full) , its log10 IC50 = 1.50
